assay_target: Aβ42 (Homo sapiens)
protocol_notes: Th-T (thioflavin-T) assay of Aβ42 aggregation
Format: biochemical
experimental_setup: concentration 10, unit not given; time-course reading M131
Tick rule met if Th-T fluorescence of Aβ42 with compound, mean of three wells (Fig. 7a source data) is 2 or greater. Tick rule not met if Th-T fluorescence of Aβ42 with compound, mean of three wells (Fig. 7a source data) is less than 2.

Use these answered entries as a reference point.
[
  {
    "molecule": "C=C1CCC2C(C)(CCC=C(C)C)C(O)CCC2(C)C1Cc1c(OC)oc(C)c(C(=O)OC)c1=O (centres unmarked)",
    "classification": "rule met"
  },
  {
    "molecule": "C=C1CC[C@@H]2[C@](C)(CC[C@H]3O[C@H](C=C(C)C)C[C@@]23C)[C@@H]1Cc1c(OC)oc(CO)c(C(=O)OC)c1=O",
    "classification": "rule not met"
  },
  {
    "molecule": "C=C1CC[C@@H]2[C@](C)(CC[C@H]3O[C@H](C=C(C)C)C[C@@]23C)[C@@H]1Cc1c(OC)oc(CO)c(C)c1=O",
    "classification": "rule met"
  },
  {
    "molecule": "C=C1CCC2C(C)(CCC=C(C)C)C(O)CCC2(C)C1Cc1c(OC)oc(CO)c(C)c1=O (centres unmarked)",
    "classification": "rule met"
  }
]

From here, focus on the item given below.
Challenge: Evaluate C=C1CCC2C(C)(CCC=C(C)C)C(O)CCC2(C)C1Cc1c(OC)oc(CO)c(C(=O)OC)c1=O (centres unmarked) : Th-T fluorescence of Aβ42 with compound, mean of three wells (Fig. 7a source data) at minimum 2?
Response given: rule not met

----------
# maps each entry to its Th-T fluorescence of Aβ42 (sheet Fig. 7a), mean of three wells
assay_target: Aβ42 (Homo sapiens, UniProt P05067)
Sequence (P05067 672-713): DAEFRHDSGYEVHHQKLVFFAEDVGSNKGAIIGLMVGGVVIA
protocol_notes: Th-T (thioflavin-T) assay of Aβ42 aggregation
Type: biochemical
experimental_setup: head suffix _50 (concentration 50); reading M84
Answer with the value's number alone.

Examples with answers:
[
  {
    "compound": "C=C1CC[C@@H]2[C@](C)(CC[C@H]3O[C@H](C=C(C)C)C[C@@]23C)[C@@H]1Cc1c(OC)oc(CO)c(C(=O)OC)c1=O",
    "quantitative_readout": 0.3714
  },
  {
    "compound": "C=C1CCC2C(C)(CCC=C(C)C)C(O)CCC2(C)C1Cc1c(OC)oc(C)c(C(=O)OC)c1=O (centres unmarked)",
    "quantitative_readout": 2.095
  },
  {
    "compound": "C=C1CC[C@@H]2[C@](C)(CC[C@H]3O[C@H](C=C(C)C)C[C@@]23C)[C@@H]1Cc1c(OC)oc(CO)c(C)c1=O",
    "quantitative_readout": 2.077
  },
  {
    "compound": "C=C1CCC2C(C)(CCC=C(C)C)C(O)CCC2(C)C1Cc1c(OC)oc(CO)c(C)c1=O (centres unmarked)",
    "quantitative_readout": 1.415
  }
]

Please look at the following compound next.
Challenge: Enter reported Th-T fluorescence of Aβ42 (sheet Fig. 7a), mean of three wells observed with Aβ42 (Homo sapiens, UniProt P05067) for C=C1CCC2C(C)(CCC=C(C)C)C(O)CCC2(C)C1Cc1c(OC)oc(CO)c(C(=O)OC)c1=O (centres unmarked)
Response given: 0.4716

----------
The reader will find reported GI50 values listed item by item below.
System: ACHN
protocol_notes: cells
Parameters: species or system JFCR39 human cancer cell lines; JFCR39 panel growth inhibition, sulforhodamine B total protein after 48 h
experimental_setup: Homo sapiens, ACHN, 48 h
Output should be the measured figure followed by the unit it is expressed in.

[
  {
    "molecule": "C=C1CC[C@@H]2[C@](C)(CC[C@H]3O[C@H](C=C(C)C)C[C@@]23C)[C@@H]1Cc1c(OC)oc(CO)c(C(=O)OC)c1=O",
    "GI50": "12.2 µM"
  },
  {
    "molecule": "C=C1CC[C@H]2[C@]3(C)C[C@@H](C=C(C)C)O[C@H]3CC[C@]2(C)[C@@H]1Cc1c(OC)oc(CO)c(C)c1=O",
    "GI50": "10.8 µM"
  },
  {
    "molecule": "C=C1CCC2C(C)(CCC=C(C)C)C(O)CCC2(C)C1Cc1c(OC)oc(C)c(C)c1=O (centres unmarked)",
    "GI50": "11 µM"
  },
  {
    "molecule": "C=C1CCC2C(C)(CCC=C(C)C)C(O)CCC2(C)C1Cc1c(OC)oc(C)c(C(=O)OC)c1=O (centres unmarked)",
    "GI50": "10.9 µM"
  }
]

Okay, next one:
Challenge: Look up GI50 for this molecule: `C=C1CC[C@@H]2[C@](C)(CC[C@H]3O[C@H](C=C(C)C)C[C@@]23C)[C@@H]1Cc1c(OC)oc(C)c(C)c1=O`
Response given: 2.33 µM

----------
assay_target: Aβ42 (Homo sapiens, UniProt P05067)
protocol_notes: Th-T (thioflavin-T) assay of Aβ42 aggregation
Assay type: biochemical
experimental_setup: column suffix _50; reading M94
Fig. 7a Th-T reading, mean of three wells strictly less than 1 = rule met. Otherwise rule not met.

Examples from the recorded data:
[
  {
    "compound": "C=C1CCC2C(C)(CCC=C(C)C)C(O)CCC2(C)C1Cc1c(OC)oc(CO)c(C(=O)OC)c1=O (centres unmarked) [Compound 13]",
    "assay_target": "Aβ42 (Homo sapiens, UniProt P05067)",
    "classification": "rule met"
  },
  {
    "compound": "C=C1CCC2C(C)(CCC=C(C)C)C(O)CCC2(C)C1Cc1c(OC)oc(CO)c(C)c1=O (centres unmarked) [Compound 12]",
    "assay_target": "Aβ42 (Homo sapiens, UniProt P05067)",
    "classification": "rule not met"
  },
  {
    "compound": "C=C1CC[C@@H]2[C@](C)(CC[C@H]3O[C@H](C=C(C)C)C[C@@]23C)[C@@H]1Cc1c(OC)oc(CO)c(C)c1=O [Compound 20]",
    "assay_target": "Aβ42 (Homo sapiens, UniProt P05067)",
    "classification": "rule not met"
  },
  {
    "compound": "C=C1CCC2C(C)(CCC=C(C)C)C(O)CCC2(C)C1Cc1c(OC)oc(C)c(C(=O)OC)c1=O (centres unmarked) [Compound 14]",
    "assay_target": "Aβ42 (Homo sapiens, UniProt P05067)",
    "classification": "rule not met"
  }
]

--- query ---
Challenge: Say whether its Fig. 7a Th-T reading, mean of three wells is strictly beneath 1. Entry: C=C1CC[C@@H]2[C@](C)(CC[C@H]3O[C@H](C=C(C)C)C[C@@]23C)[C@@H]1Cc1c(OC)oc(CO)c(C(=O)OC)c1=O [Compound 21]
Response given: rule met

----------
assay_target: UniProt:P05067
protocol_notes: Th-T (thioflavin-T) assay of Aβ42 aggregation
Format: biochemical
experimental_setup: head suffix _10 (concentration 10); reading M74
Quick reference for Th-T fluorescence of Aβ42 (sheet Fig. 7a), mean of three wells among some molecules
The answer should be written as a number, with no unit following it.

Past entries and their recorded results:
[
  {
    "molecule": "C=C1CC[C@@H]2[C@](C)(CC[C@H]3O[C@H](C=C(C)C)C[C@@]23C)[C@@H]1Cc1c(OC)oc(CO)c(C)c1=O",
    "quantitative_readout": 3.412
  },
  {
    "molecule": "C=C1CCC2C(C)(CCC=C(C)C)C(O)CCC2(C)C1Cc1c(OC)oc(C)c(C(=O)OC)c1=O (centres unmarked)",
    "quantitative_readout": 2.748
  },
  {
    "molecule": "C=C1CCC2C(C)(CCC=C(C)C)C(O)CCC2(C)C1Cc1c(OC)oc(CO)c(C)c1=O (centres unmarked)",
    "quantitative_readout": 3.307
  },
  {
    "molecule": "C=C1CCC2C(C)(CCC=C(C)C)C(O)CCC2(C)C1Cc1c(OC)oc(CO)c(C(=O)OC)c1=O (centres unmarked)",
    "quantitative_readout": 1.559
  }
]

# input for lookup
Challenge: Can you look up the measured Th-T fluorescence of Aβ42 (sheet Fig. 7a), mean of three wells of `C=C1CC[C@@H]2[C@](C)(CC[C@H]3O[C@H](C=C(C)C)C[C@@]23C)[C@@H]1Cc1c(OC)oc(CO)c(C(=O)OC)c1=O` for me?
Response given: 0.8738

----------
Below, each entry is listed alongside its reported Fig. 7a Th-T reading, mean of three wells.
assay_target: Aβ42 (Homo sapiens, UniProt P05067)
protocol_notes: Th-T (thioflavin-T) assay of Aβ42 aggregation
Assay type: biochemical
experimental_setup: column suffix _10; reading M86
// return just the number, without any unit appended

[
  {
    "molecule": "C=C1CC[C@@H]2[C@](C)(CC[C@H]3O[C@H](C=C(C)C)C[C@@]23C)[C@@H]1Cc1c(OC)oc(CO)c(C)c1=O",
    "assay_target": "Aβ42 (Homo sapiens, UniProt P05067)",
    "quantitative_readout": 3.35
  },
  {
    "molecule": "C=C1CCC2C(C)(CCC=C(C)C)C(O)CCC2(C)C1Cc1c(OC)oc(CO)c(C)c1=O (centres unmarked)",
    "assay_target": "Aβ42 (Homo sapiens, UniProt P05067)",
    "quantitative_readout": 3.133
  },
  {
    "molecule": "C=C1CC[C@@H]2[C@](C)(CC[C@H]3O[C@H](C=C(C)C)C[C@@]23C)[C@@H]1Cc1c(OC)oc(CO)c(C(=O)OC)c1=O",
    "assay_target": "Aβ42 (Homo sapiens, UniProt P05067)",
    "quantitative_readout": 1.509
  },
  {
    "molecule": "C=C1CCC2C(C)(CCC=C(C)C)C(O)CCC2(C)C1Cc1c(OC)oc(C)c(C(=O)OC)c1=O (centres unmarked)",
    "assay_target": "Aβ42 (Homo sapiens, UniProt P05067)",
    "quantitative_readout": 2.788
  }
]

Now for the molecule whose Fig. 7a Th-T reading, mean of three wells we want.
Challenge: Which Fig. 7a Th-T reading, mean of three wells is reported for this molecule? C=C1CCC2C(C)(CCC=C(C)C)C(O)CCC2(C)C1Cc1c(OC)oc(CO)c(C(=O)OC)c1=O (centres unmarked)
Response given: 1.5365
